Target: insulin receptor prepared according to Bass et al., 1996 (soluble IR) (human) (UniProt P06213)
Test: phage ELISA; IR ratio over background divided by IGF-1R ratio
Observed property: IR/IGF-1R ratio comparison

{"Binder": "DYKDCGAKMTGTPNDPFYHKLSELLQRGAAAGAP (peptide, not shown: large carriers) [B6Hα-3-E6-IR]", "Observed property": "IR/IGF-1R ratio comparison", "Measured": 0.5}
{"Binder": "DYKDQSGSGDFYDWLSRLIRGNGDGAAAGAP (peptide, not shown: large carriers) [20E2Bβ-3-C7-IR]", "Observed property": "IR/IGF-1R ratio comparison", "Measured": 0.5}
{"Binder": "DYKDSRVAATKEKRPSDDPFYHKLSELLQGSAAAGAP (peptide, not shown: large carriers) [B6Hα-3-F7-IR]", "Observed property": "IR/IGF-1R ratio comparison", "Measured": 0.3}
{"Binder": "DYKDGCITAENGAGDPFYHKLSELGGCSAAAGAP (peptide, not shown: large carriers) [B6Hα-1-B3-IR]", "Observed property": "IR/IGF-1R ratio comparison", "Measured": 0.3}
{"Binder": "DYKDRCGDEEGWQENRRDDPFYHKLSELFGGCAAAGAP (peptide, not shown: large carriers) [B6Hα-3-E5-IR]", "Observed property": "IR/IGF-1R ratio comparison", "Measured": 0.3}
{"Binder": "DYKDCSMAAVAEAGDDDDPFYHKLSELCQGSAAAGAP (peptide, not shown: large carriers) [B6Hα-3-F1-IR]", "Observed property": "IR/IGF-1R ratio comparison", "Measured": 0.5}
{"Binder": "DYKDLSCLAYSRHGIWRPSTDLGLGRSVGEGSVSTRWRGYDWFEAAAGAP (peptide, not shown: large carriers) [40F-4-D1-IGFR]", "Observed property": "IR/IGF-1R ratio comparison", "Measured": 0.1}
{"Binder": "DYKDMNVFVSFYDAIDQLVCQRIGCAAAGAP (peptide, not shown: large carriers) [20E2A-4-G11-IGFR]", "Observed property": "IR/IGF-1R ratio comparison", "Measured": 0.4}
{"Binder": "DYKDAETSAQVGWQRLWSVWPGDHWSTLDPFYHKLSELLRESGAAAAGAP (peptide, not shown: large carriers) [B6L-3-G5-IR]", "Observed property": "IR/IGF-1R ratio comparison", "Measured": 0.7}
